- procedure.text: PK comparison, rabbit
- experimental.conditions: in vivo, 2 mg/kg, calculated from doses of 5 and 10 mg/kg, analyte = label, after CMX001
Below, each of the compounds is paired with its reported Cmax value.
Numeric answer only, unit ng/mL assumed.

CCCCCCCCCCCCCCCCOCCCOP(=O)(O)CO[C@H](CO)Cn1ccc(N)nc1=O ... 18

We next turn to a different compound, shown below.
Query: Find the recorded Cmax belonging to Nc1ccn(C[C@@H](CO)OCP(=O)(O)O)c(=O)n1 [Cidofovir, cidofovir, reference compound] and report it.
Response: 5.44

---

- Tested on: BK Virus
- procedure.text: In vitro potency against BK Virus in WI-38 cells
- Format: cell-based
- experimental.conditions: Betapolyomavirus hominis, WI-38
endpoint: EC50 (µM)
Numeric answer only, unit µM assumed.

Nc1ccn(C[C@@H](CO)OCP(=O)(O)O)c(=O)n1 [Cidofovir, cidofovir, reference compound] ... 115

We next turn to a different compound, shown below.
Query: Find the recorded EC50 belonging to CCCCCCCCCCCCCCCCOCCCOP(=O)(O)CO[C@H](CO)Cn1ccc(N)nc1=O [CMX001, Hexadecyloxypropyl-cidofovir] and report it.
Response: 0.13
